Hi! I'm sharing some IC50 results obtained with Somatostatin receptor type 2 (Homo sapiens).
Sequence (P30874 whole entry): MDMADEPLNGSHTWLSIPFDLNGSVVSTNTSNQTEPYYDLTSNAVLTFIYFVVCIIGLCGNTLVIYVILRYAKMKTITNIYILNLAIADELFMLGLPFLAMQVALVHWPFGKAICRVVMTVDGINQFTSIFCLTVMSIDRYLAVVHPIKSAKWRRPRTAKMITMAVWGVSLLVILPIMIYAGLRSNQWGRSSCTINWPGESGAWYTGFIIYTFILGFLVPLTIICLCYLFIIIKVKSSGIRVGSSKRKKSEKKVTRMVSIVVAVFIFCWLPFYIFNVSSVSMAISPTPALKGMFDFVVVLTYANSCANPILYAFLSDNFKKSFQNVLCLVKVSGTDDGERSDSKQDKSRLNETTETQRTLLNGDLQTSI
Metric: IC50 (nM)

Input Smiles	Assay Target	IC50 [nM]
C[C@@H](O)[C@@H]1NC(=O)[C@H](Cc2ccccc2)NC(=O)[C@H]([C@@H](C)O)NC(=O)[C@H](CCCCN)NC(=O)[C@@H](Cc2c[nH]c3ccccc23)NC(=O)[C@H](Cc2ccccc2)NC(=O)[C@H](Cc2ccccc2)NC(=O)[C@H](CC(N)=O)NC(=O)[C@@H](N)CSSC[C@@H](C(=O)O)NC1=O	Somatostatin receptor type 2 (Homo sapiens)	5

[A] C[C@@H](O)[C@@H]1NC(=O)[C@H](CCCCN)NC(=O)[C@@H](Cc2c[nH]c3ccccc23)NC(=O)[C@H](Cc2ccccc2)NC(=O)[C@H](Cc2ccccc2)NC(=O)[C@H](CCCCN)NC(=O)[C@@H](N)CSSC[C@@H](C(=O)O)NC(=O)[C@H](Cc2ccccc2)NC1=O
[B] C[C@@H](O)[C@@H]1NC(=O)[C@H](CCCCN)NC(=O)[C@@H](Cc2c[nH]c3ccccc23)NC(=O)[C@H](Cc2ccccc2)NC(=O)[C@H](Cc2ccccc2)NC(=O)[C@@H](N)CSSC[C@@H](C(=O)O)NC1=O
# input In the pair A and B , the larger recorded IC50 belongs to which? Identify your pick by its label.
# output B

----------
# Assay Target: Somatostatin receptor type 3 (Homo sapiens)
# Sequence (P32745 whole entry): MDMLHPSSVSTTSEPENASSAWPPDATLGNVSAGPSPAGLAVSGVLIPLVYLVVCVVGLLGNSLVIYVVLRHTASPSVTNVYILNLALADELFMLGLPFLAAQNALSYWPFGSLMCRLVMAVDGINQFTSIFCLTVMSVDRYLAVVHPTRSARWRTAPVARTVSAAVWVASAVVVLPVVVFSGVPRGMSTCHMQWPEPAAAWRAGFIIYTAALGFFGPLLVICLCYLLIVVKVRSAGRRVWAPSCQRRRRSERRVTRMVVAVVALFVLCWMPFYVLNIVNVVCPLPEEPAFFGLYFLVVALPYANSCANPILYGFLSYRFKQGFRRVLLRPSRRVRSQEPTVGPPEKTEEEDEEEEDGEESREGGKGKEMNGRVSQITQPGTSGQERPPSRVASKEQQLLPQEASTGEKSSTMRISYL
Metric: IC50

Input Smiles	Recorded Value
CC(C)NCc1ccc(C[C@@H]2NC(=O)[C@@H](Cc3c[nH]c4ccccc34)NC(=O)[C@@H]3CCC(=O)NCCCC(=O)NCCC[C@H](NC(=O)[C@H](Cc4ccccc4)NC(=O)[C@H]([C@@H](C)O)NC2=O)C(=O)N[C@@H](CO)C(=O)N[C@H](C(=O)O)CSSC[C@H](NC(=O)[C@@H](N)Cc2ccc(O)cc2)C(=O)N[C@@H](CCCCN)C(=O)N[C@@H](Cc2ccccc2)C(=O)N3)cc1	> 1 µM
C[C@@H](O)[C@@H]1NC(=O)[C@H](CCCCN)NC(=O)[C@@H](Cc2c[nH]c3ccccc23)NC(=O)[C@H](Cc2ccccc2)NC(=O)[C@H](Cc2ccccc2)NC(=O)[C@H](CC(N)=O)NC(=O)[C@@H](N)CSSC[C@@H](C(=O)O)NC(=O)[C@H](Cc2ccccc2)NC1=O	0.189 µM
CC(C)NCc1ccc(C[C@@H]2NC(=O)[C@@H](Cc3c[nH]c4ccccc34)NC(=O)[C@H]3CCC(=O)NCC[C@@H](NC(=O)[C@H]([C@@H](C)O)NC2=O)C(=O)N[C@@H]([C@@H](C)O)C(=O)N[C@@H](CO)C(=O)N[C@H](C(=O)O)CSSC[C@H](NC(=O)[C@@H](N)Cc2ccc(O)cc2)C(=O)N[C@@H](CCCCN)C(=O)N[C@@H](Cc2ccccc2)C(=O)N3)cc1	> 1 µM

# input For CC(C)NCc1ccc(C[C@@H]2NC(=O)[C@@H](Cc3c[nH]c4ccccc34)NC(=O)[C@@H]3CCC(=O)NCCCC[C@H](NC(=O)[C@H](Cc4ccccc4)NC(=O)[C@H]([C@@H](C)O)NC2=O)C(=O)N[C@@H](CO)C(=O)N[C@H](C(=O)O)CSSC[C@H](NC(=O)[C@@H](N)Cc2ccc(O)c(I)c2)C(=O)N[C@@H](CCCCN)C(=O)N[C@@H](Cc2ccccc2)C(=O)N3)cc1 , what is its reported IC50?
# output > 1 µM

# input One more molecule: CC(C)NCc1ccc(C[C@@H]2NC(=O)[C@@H](Cc3c[nH]c4ccccc34)NC(=O)[C@@H]3CC(=O)NC[C@H](NC(=O)[C@H](Cc4ccccc4)NC(=O)[C@H]([C@@H](C)O)NC2=O)C(=O)N[C@@H](CO)C(=O)N[C@H](C(=O)O)CSSC[C@H](NC(=O)[C@@H](N)Cc2ccc(O)cc2)C(=O)N[C@@H](CCCCN)C(=O)N[C@@H](Cc2ccccc2)C(=O)N3)cc1
# output > 1 µM

# input Query CC(C)NCc1ccc(C[C@@H]2NC(=O)[C@@H](Cc3c[nH]c4ccccc34)NC(=O)[C@H](Cc3ccccc3)NC(=O)[C@@H]3CC(=O)NC[C@H](NC(=O)[C@H](Cc4ccccc4)NC(=O)[C@H]([C@@H](C)O)NC2=O)C(=O)N[C@@H](CO)C(=O)N[C@H](C(=O)O)CSSC[C@H](NC(=O)[C@@H](N)Cc2ccc(O)cc2)C(=O)N[C@@H](CCCCN)C(=O)N3)cc1 next
# output > 1 µM

----------
# Assay Target: Somatostatin receptor type 1 (Homo sapiens, UniProt P30872)
# Sequence (P30872 whole entry): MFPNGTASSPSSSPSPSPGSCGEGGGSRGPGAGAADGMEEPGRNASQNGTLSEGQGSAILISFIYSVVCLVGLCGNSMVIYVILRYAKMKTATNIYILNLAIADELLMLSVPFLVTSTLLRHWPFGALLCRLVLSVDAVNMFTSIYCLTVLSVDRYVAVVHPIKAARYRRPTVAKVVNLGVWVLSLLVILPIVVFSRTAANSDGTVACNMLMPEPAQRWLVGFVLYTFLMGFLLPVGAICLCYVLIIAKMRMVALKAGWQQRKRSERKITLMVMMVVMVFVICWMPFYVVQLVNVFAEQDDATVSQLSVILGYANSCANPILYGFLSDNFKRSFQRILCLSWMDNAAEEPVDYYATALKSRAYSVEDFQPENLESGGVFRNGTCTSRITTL
The following compounds are shown together with reported pIC50 values.
API: returns pIC50 as number; meaning -log10 of concentration in mol/L.

Input Smiles	pIC50
CC(C)NCc1ccc(C[C@@H]2NC(=O)[C@@H](Cc3c[nH]c4ccccc34)NC(=O)[C@@H]3CCC(=O)NCCCC[C@H](NC(=O)[C@H](Cc4ccccc4)NC(=O)[C@H]([C@@H](C)O)NC2=O)C(=O)N[C@@H](CO)C(=O)N[C@H](C(=O)O)CSSC[C@H](NC(=O)[C@@H](N)Cc2ccc(O)c(I)c2)C(=O)N[C@@H](CCCCN)C(=O)N[C@@H](Cc2ccccc2)C(=O)N3)cc1	7.05

# input Fill in: pIC50 of CC(C)NCc1ccc(C[C@@H]2NC(=O)[C@@H](Cc3c[nH]c4ccccc34)NC(=O)[C@@H]3CCC(=O)NCCCCC[C@H](NC(=O)[C@H](Cc4ccccc4)NC(=O)[C@H]([C@@H](C)O)NC2=O)C(=O)N[C@@H](CO)C(=O)N[C@H](C(=O)O)CSSC[C@H](NC(=O)[C@@H](N)Cc2ccc(O)cc2)C(=O)N[C@@H](CCCCN)C(=O)N[C@@H](Cc2ccccc2)C(=O)N3)cc1 is ___
# output 7.03

# input Another compound: CC(C)NCc1ccc(C[C@@H]2NC(=O)[C@@H](Cc3c[nH]c4ccccc34)NC(=O)[C@H](Cc3ccccc3)NC(=O)[C@@H]3CCC(=O)NCC[C@H](NC(=O)[C@H](Cc4ccccc4)NC(=O)[C@H]([C@@H](C)O)NC2=O)C(=O)N[C@@H](CO)C(=O)N[C@H](C(=O)O)CSSC[C@H](NC(=O)[C@@H](N)Cc2ccc(O)cc2)C(=O)N[C@@H](CCCCN)C(=O)N3)cc1
# output 6.98

# input What do you get for CC(C)NCc1ccc(C[C@@H]2NC(=O)[C@@H](Cc3c[nH]c4ccccc34)NC(=O)[C@@H]3CCC(=O)NCCCC(=O)NCC[C@H](NC(=O)[C@H](Cc4ccccc4)NC(=O)[C@H]([C@@H](C)O)NC2=O)C(=O)N[C@@H](CO)C(=O)N[C@H](C(=O)O)CSSC[C@H](NC(=O)[C@@H](N)Cc2ccc(O)cc2)C(=O)N[C@@H](CCCCN)C(=O)N[C@@H](Cc2ccccc2)C(=O)N3)cc1 ?
# output 7.21

----------
Recorded IC50, one value per entry.
# Assay Target: Somatostatin receptor type 1 (Homo sapiens)

Please review the entries below; each comes with its answer.
Input Smiles	IC50
CC(C)NCc1ccc(C[C@@H]2NC(=O)[C@@H](Cc3c[nH]c4ccccc34)NC(=O)[C@H]3CCC(=O)NCC[C@H](NC(=O)[C@H]([C@@H](C)O)NC2=O)C(=O)N[C@@H]([C@@H](C)O)C(=O)N[C@@H](CO)C(=O)N[C@H](C(=O)O)CSSC[C@H](NC(=O)[C@@H](N)Cc2ccc(O)cc2)C(=O)N[C@@H](CCCCN)C(=O)N[C@@H](Cc2ccccc2)C(=O)N3)cc1	> 1000 nM
CC(C)NCc1ccc(C[C@@H]2NC(=O)[C@@H](Cc3c[nH]c4ccccc34)NC(=O)[C@@H]3CCC(=O)NCCCC[C@H](NC(=O)[C@H]([C@@H](C)O)NC2=O)C(=O)N[C@@H]([C@@H](C)O)C(=O)N[C@@H](CO)C(=O)N[C@H](C(=O)O)CSSC[C@H](NC(=O)[C@@H](N)Cc2ccc(O)cc2)C(=O)N[C@@H](CCCCN)C(=O)N[C@@H](Cc2ccccc2)C(=O)N3)cc1	> 1000 nM

Continue with the next compound.
# input Endpoint output: IC50 of CC(C)NCc1ccc(C[C@@H]2NC(=O)[C@@H](Cc3c[nH]c4ccccc34)NC(=O)[C@@H]3CC(=O)NCCC[C@H](NC(=O)[C@H](Cc4ccccc4)NC(=O)[C@H]([C@@H](C)O)NC2=O)C(=O)N[C@@H](CO)C(=O)N[C@H](C(=O)O)CSSC[C@H](NC(=O)[C@@H](N)Cc2ccc(O)cc2)C(=O)N[C@@H](CCCCN)C(=O)N[C@@H](Cc2ccccc2)C(=O)N3)cc1 . Value?
# output > 1000 nM
